# Assay conditions: fish
Catalogue of molecules with associated log10 biotransformation half-life (days)

A selection of reference data follows.
{"Molecule": "Clc1cc(Cl)c(-c2cc(Cl)c(Cl)c(Cl)c2Cl)c(Cl)c1", "Value": 2.51}
{"Molecule": "Brc1ccc(Oc2ccc(Br)cc2Br)cc1", "Value": 1.25}
{"Molecule": "COP(=S)(OC)Oc1cc(Cl)c(Br)cc1Cl", "Value": 0.97}
{"Molecule": "CC1(C)CCC(Cc2ccc(Cl)cc2)C1(O)Cn1cncn1 (configuration not stated)", "Value": 0.23}

Any idea what its log10 biotransformation half-life (days) is? The molecule is `C=C(C)[C@H]1Cc2c(ccc3c2O[C@@H]2COc4cc(OC)c(OC)cc4[C@@H]2C3=O)O1`
-0.59

Any idea what its log10 biotransformation half-life (days) is? The molecule is `CCCCCCCC1CCCCC1`
0.17

Any idea what its log10 biotransformation half-life (days) is? The molecule is `Clc1cccc(Cl)c1`
-0.21
